Source listed as patent US20240150287A1.

target: recombinant human integrin α4β7 (binding to recombinant human MAdCAM-1) (Homo sapiens (Human), UniProt P13612+P26010); experiment: MAdCAM-1/α4β7 integrin binding inhibition activity evaluation test (α4β7-MAdCAM-1 ELISA); settings: plate-coated recombinant human MAdCAM-1, recombinant human α4β7, 2 h room temperature, free form of compound
Sequence (P13612 34-970): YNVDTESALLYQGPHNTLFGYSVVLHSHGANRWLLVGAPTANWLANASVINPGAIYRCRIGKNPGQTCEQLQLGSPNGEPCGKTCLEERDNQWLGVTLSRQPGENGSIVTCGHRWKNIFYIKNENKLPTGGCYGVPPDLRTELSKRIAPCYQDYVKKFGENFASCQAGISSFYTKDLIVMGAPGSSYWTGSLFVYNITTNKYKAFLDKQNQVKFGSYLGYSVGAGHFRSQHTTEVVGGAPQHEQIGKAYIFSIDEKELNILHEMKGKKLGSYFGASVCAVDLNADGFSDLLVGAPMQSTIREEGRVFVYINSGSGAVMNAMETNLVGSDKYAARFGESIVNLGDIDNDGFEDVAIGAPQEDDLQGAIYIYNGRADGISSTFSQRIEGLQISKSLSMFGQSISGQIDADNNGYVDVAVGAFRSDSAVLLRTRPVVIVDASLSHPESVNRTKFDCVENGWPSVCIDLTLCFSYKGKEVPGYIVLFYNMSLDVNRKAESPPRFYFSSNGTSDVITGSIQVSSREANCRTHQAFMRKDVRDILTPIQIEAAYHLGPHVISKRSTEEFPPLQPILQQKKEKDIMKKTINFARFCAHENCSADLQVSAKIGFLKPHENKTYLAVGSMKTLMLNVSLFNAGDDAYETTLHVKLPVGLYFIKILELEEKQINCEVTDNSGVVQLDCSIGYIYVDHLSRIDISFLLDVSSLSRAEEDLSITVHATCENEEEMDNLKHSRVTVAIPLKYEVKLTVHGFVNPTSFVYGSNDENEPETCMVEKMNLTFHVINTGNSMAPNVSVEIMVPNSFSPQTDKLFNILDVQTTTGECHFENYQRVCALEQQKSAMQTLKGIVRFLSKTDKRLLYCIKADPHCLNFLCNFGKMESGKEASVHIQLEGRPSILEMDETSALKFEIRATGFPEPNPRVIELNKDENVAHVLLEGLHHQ
Sequence (P26010 20-723): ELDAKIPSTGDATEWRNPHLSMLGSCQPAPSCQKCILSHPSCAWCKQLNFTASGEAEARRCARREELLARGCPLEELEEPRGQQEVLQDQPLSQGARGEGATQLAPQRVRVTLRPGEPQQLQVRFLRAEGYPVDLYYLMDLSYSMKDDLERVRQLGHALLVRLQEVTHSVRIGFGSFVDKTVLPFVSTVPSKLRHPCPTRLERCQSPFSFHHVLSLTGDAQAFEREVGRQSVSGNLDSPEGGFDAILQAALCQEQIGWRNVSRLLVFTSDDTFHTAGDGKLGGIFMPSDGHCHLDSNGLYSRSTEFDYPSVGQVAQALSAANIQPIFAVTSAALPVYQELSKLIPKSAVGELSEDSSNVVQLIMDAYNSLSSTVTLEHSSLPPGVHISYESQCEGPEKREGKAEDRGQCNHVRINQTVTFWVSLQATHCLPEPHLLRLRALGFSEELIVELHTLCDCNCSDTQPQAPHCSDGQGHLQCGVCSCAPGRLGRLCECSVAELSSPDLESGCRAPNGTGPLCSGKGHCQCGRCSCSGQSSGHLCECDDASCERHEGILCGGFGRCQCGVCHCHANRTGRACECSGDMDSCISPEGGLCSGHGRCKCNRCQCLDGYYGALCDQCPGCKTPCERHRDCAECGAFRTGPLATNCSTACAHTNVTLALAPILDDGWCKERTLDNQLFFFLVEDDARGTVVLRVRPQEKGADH
measured.attribute: IC50 (nM)
Field: numeric (nM). Do not append units.

input: GET /values?readout=IC50&item= O=C(N[C@@H](Cc1ccc(N2C(=O)C3(CC3)c3cccc(Cl)c32)cc1)C(=O)O)c1c(Cl)cc(Cl)cc1Cl [Example 17]
output: 64.2

input: GET /values?readout=IC50&item= CC1(C)C(=O)N(c2ccc(C[C@H](NC(=O)c3c(F)cccc3Cl)C(=O)O)cc2)c2c(Cl)cccc21 [Example 10]
output: 38.8

input: GET /values?readout=IC50&item= O=C(N[C@@H](Cc1ccc(N2C(=O)C3(CC3)c3ccc(F)cc32)cc1)C(=O)O)c1c(Cl)cccc1Cl [Example 4]
output: 2.54

input: GET /values?readout=IC50&item= Cn1c(=S)n(-c2ccc(C[C@H](NC(=O)c3c(F)cccc3Cl)C(=O)O)cc2)c2c(Cl)cccc21 [Example 26]
output: 160

* * *

target: recombinant human integrin α4β7 (binding to recombinant human MAdCAM-1) (Homo sapiens (Human), UniProt P13612+P26010); experiment: MAdCAM-1/α4β7 integrin binding inhibition activity evaluation test (α4β7-MAdCAM-1 ELISA); conditions: plate-coated recombinant human MAdCAM-1, recombinant human α4β7, 2 h room temperature, free form of compound
Provide the reported IC50 of each item.
Field: numeric (nM). Do not append units.

input: GET /values?readout=IC50&item= CN(C)c1ccc2c(c1)n(-c1ccc(C[C@H](NC(=O)c3c(F)cccc3Cl)C(=O)O)cc1)c(=O)n2C [Example 36]
output: 1.51

input: GET /values?readout=IC50&item= O=C(N[C@@H](Cc1ccc(-n2c(=O)n(C3CC3)c3cccc(Cl)c32)cc1)C(=O)O)c1c(Cl)cccc1Cl [Example 25]
output: 7.5

input: GET /values?readout=IC50&item= COc1cccc2c1n(-c1ccc(C[C@H](NC(=O)c3c(F)cccc3Cl)C(=O)O)cc1)c(=O)n2C [Example 35]
output: 0.45

input: GET /values?readout=IC50&item= O=C(N[C@@H](Cc1ccc(N2C(=O)C3(CC3)c3ccc(F)c(F)c32)cc1)C(=O)O)c1c(F)cccc1Cl [Example 15]
output: 5.62

* * *

target: recombinant human integrin α4β7 (binding to recombinant human MAdCAM-1) (Homo sapiens (Human), UniProt P13612+P26010); assay: MAdCAM-1/α4β7 integrin binding inhibition activity evaluation test (α4β7-MAdCAM-1 ELISA); details: plate-coated recombinant human MAdCAM-1, recombinant human α4β7, 2 h room temperature, free form of compound
measured.attribute: log10(IC50) (log10 of the value in nM)
All values: log10 IC50 [nM].

input: GET /values?readout=log10(IC50)&item= `O=C(N[C@@H](Cc1ccc(N2C(=O)C3(CC3)c3cccc(Cl)c32)cc1)C(=O)O)c1c(F)cccc1Cl`
output: 0.41

input: GET /values?readout=log10(IC50)&item= `O=C(N[C@@H](Cc1ccc(N2C(=O)C3(CC3)c3cccnc32)cc1)C(=O)O)c1c(Cl)cccc1Cl`
output: -0.12

input: GET /values?readout=log10(IC50)&item= `Cn1c(=O)n(-c2ccc(C[C@H](NC(=O)c3c(F)cccc3Cl)C(=O)O)cc2)c2ccc(F)c(F)c21`
output: 1.02

input: GET /values?readout=log10(IC50)&item= `CN1CCC(n2c(=O)n(-c3ccc(C[C@H](NC(=O)c4c(F)cccc4Cl)C(=O)O)cc3)c3c(Cl)cccc32)CC1`
output: 1.26

input: GET /values?readout=log10(IC50)&item= `O=C(N[C@@H](Cc1ccc(N2C(=O)C3(CC3)c3cc(F)ccc32)cc1)C(=O)O)c1c(F)cccc1Cl`
output: 1.98

input: GET /values?readout=log10(IC50)&item= `O=C(N[C@@H](Cc1ccc(-n2c(=O)n(C3CC3)c3cccc(F)c32)cc1)C(=O)O)c1c(F)cccc1Cl`
output: 0.94

input: GET /values?readout=log10(IC50)&item= `COc1cccc2c1N(c1ccc(C[C@H](NC(=O)c3c(Cl)cccc3Cl)C(=O)O)cc1)C(=O)C21CC1`
output: 0.74

input: GET /values?readout=log10(IC50)&item= `Cn1c(=O)n(-c2ccc(C[C@H](NC(=O)c3c(Cl)cc(N4CCOCC4)cc3Cl)C(=O)O)cc2)c2c(Cl)cccc21`
output: 0.56

input: GET /values?readout=log10(IC50)&item= `O=C(N[C@@H](Cc1ccc(N2C(=O)C3(CC3)c3cccc(F)c32)cc1)C(=O)O)c1c(Cl)cccc1Cl`
output: 0.46

input: GET /values?readout=log10(IC50)&item= `Cn1c(=O)n(-c2ccc(C[C@H](NC(=O)c3c(Cl)cc(Cl)cc3Cl)C(=O)O)cc2)c2c(Cl)cccc21`
output: 1.45

input: GET /values?readout=log10(IC50)&item= `Cn1c(=O)n(-c2ccc(C[C@H](NC(=O)c3c(F)cccc3Cl)C(=O)O)cc2)c2c(Cl)cccc21`
output: 0.08

input: GET /values?readout=log10(IC50)&item= `O=C(N[C@@H](Cc1ccc(N2C(=O)C3(CC3)c3ccccc32)cc1)C(=O)O)c1c(Cl)cccc1Cl`
output: 0.76

input: GET /values?readout=log10(IC50)&item= `O=C(N[C@@H](Cc1ccc(-n2c(=O)n(C3CCOCC3)c3cccc(Cl)c32)cc1)C(=O)O)c1c(F)cccc1Cl`
output: 1.04

input: GET /values?readout=log10(IC50)&item= `O=C(N[C@@H](Cc1ccc(N2C(=O)C3(CC3)c3cccc(Cl)c32)cc1)C(=O)O)c1c(Cl)cc(N2CCOCC2)cc1Cl`
output: 1.06

input: GET /values?readout=log10(IC50)&item= `O=C(N[C@@H](Cc1ccc(-n2c(=O)n(C3CC3)c3ccc(Cl)cc32)cc1)C(=O)O)c1c(Cl)cccc1Cl`
output: 0.75
